For each entry below, report its pKi value.
- measured.target: human orexin 2 receptors (Homo sapiens (Human), UniProt O43614)
- Sequence (O43614 whole entry): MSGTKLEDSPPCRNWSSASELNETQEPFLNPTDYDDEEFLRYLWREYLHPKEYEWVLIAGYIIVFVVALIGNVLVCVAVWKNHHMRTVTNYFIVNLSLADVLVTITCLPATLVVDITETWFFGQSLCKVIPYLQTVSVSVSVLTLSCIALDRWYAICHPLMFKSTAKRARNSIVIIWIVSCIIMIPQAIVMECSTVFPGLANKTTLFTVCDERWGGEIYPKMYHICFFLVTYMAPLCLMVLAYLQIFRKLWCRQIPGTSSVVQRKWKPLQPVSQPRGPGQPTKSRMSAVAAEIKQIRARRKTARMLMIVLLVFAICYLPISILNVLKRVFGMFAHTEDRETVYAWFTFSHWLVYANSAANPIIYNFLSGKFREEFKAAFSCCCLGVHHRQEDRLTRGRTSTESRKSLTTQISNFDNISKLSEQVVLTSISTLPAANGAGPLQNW
- protocol.details: Calcium Accumulation in Cells (FLIPR), antagonism of orexin A
- protocol.conditions: antagonism of orexin A, Cheng-Prusoff corrected; read-out: FLIPR hOx2R Ki
One number for each entry, as −log10 of the molar value.

Observe how each entry below is paired with its result.
compound	pKi
COc1ccc(C(C)NC(=O)COc2cc(C)c3c(-c4cc(C)oc4C)nn(C)c3n2)cn1 (centres unmarked) [Example 6.32]	6.02
Cc1cnc2c(c1)CC[C@@H]2NC(=O)COc1cc(C)c2c(C3CC3)nn(C)c2n1 [Example 6.65]	6.08
Cc1ccc([C@H](C)NC(=O)COc2cc(C)c3c(-c4nccs4)nn(C)c3n2)cc1 [Example 5.2]	9.00
C[C@H](NC(=O)COc1cc(C(F)(F)F)c2c(-c3cccc(F)c3)nn(C)c2n1)c1ccccc1 [Example 1.22]	7.30
COc1ccc([C@H](C)NC(=O)COc2cc(C(F)(F)F)c3c(C4CC4)nn(C)c3n2)cc1 [Example 6.15]	7.92
COc1ccc([C@H](C)NC(=O)COc2cc(C)c3c(-c4cc(OC)cc(OC)c4)nn(C)c3n2)cc1 [Example 6.1]	6.73
Cc1nn(C)c(C)c1C(C)NC(=O)COc1cc(C(F)F)c2c(C3CC3)nn(C)c2n1 (centres unmarked) [Example 6.9]	6.28
Cc1ccc(C(C)(C)NC(=O)COc2cc(C)c3c(C4CC4)nn(C)c3n2)cc1 [Example 6.6]	7.33

# batch size: 2; output pKi per entry
1. C[C@H](NC(=O)COc1cc(C(F)(F)F)c2c(-c3cccnc3)nn(C)c2n1)c1ccccc1 [Example 1.34]
2. Cc1ccc([C@H](C)NC(=O)COc2cc(C)c3c(-c4cnccn4)nn(C)c3n2)cc1 [Example 4.8]

[6.49, 7.82]

# batch size: 7; output pKi per entry
1. Cc1ccc([C@H](C)NC(=O)COc2cc(C)c3c(-c4cc(C)oc4C)nn(C)c3n2)cc1 [Example 6.30]
2. Cc1cc(OCC(=O)NC(C)c2cnc3[nH]ccc3c2)nc2c1c(C1CC1)nn2C (centres unmarked) [Example 6.57]
3. Cc1ccc([C@H](C)NC(=O)COc2ccc3c(-c4ccccc4C)nn(C)c3n2)cc1 [Example 6.35]
4. Cn1nc(-c2ccccc2)c2c(C(F)(F)F)cc(OCC(=O)NCc3ccccc3F)nc21 [Example 1.42]
5. C[C@H](NC(=O)COc1cc(C(F)(F)F)c2c(-c3ccccc3)noc2n1)c1ccccc1 [Example 6.78]
6. C[C@H](CNC(=O)COc1cc(C(F)(F)F)c2c(-c3ccccc3)nn(C)c2n1)c1ccccc1 [Example 1.5]
7. Cc1ccc(CNC(=O)COc2cc(C)c3c(C4CC4)nn(C)c3n2)cc1 [Example 6.66]

7.21
7.11
6.90
6.05
5.74
7.44
5.88

# batch size: 3; output pKi per entry
1. Cc1ccc([C@H](C)NC(=O)COc2cc(C)c3c(-c4ncco4)nn(C)c3n2)cc1 [Example 4.2]
2. CCOc1ccccc1CNC(=O)COc1cc(C(F)(F)F)c2c(-c3ccccc3)nn(C)c2n1 [Example 1.7]
3. COc1ccc(C(C)NC(=O)COc2cc(C(F)(F)F)c3c(-c4ccccc4)nn(C)c3n2)cc1 (centres unmarked) [Example 1.45]

[7.49, 6.47, 8.70]

* * *

- measured.target: UniProt:O43613
- protocol.details: Calcium Accumulation in Cells (FLIPR), antagonism of orexin A
- protocol.conditions: antagonism of orexin A, Cheng-Prusoff corrected; read-out: FLIPR hOx1R Ki
observable: Ki (nM)
Numbers only, in nM.

# batch size: 5; output Ki per entry
1. Cc1ccc([C@H](C)NC(=O)COc2nc3c(c(C4CC4)nn3C)c(C)c2C)cc1
2. COc1ccc([C@H](C)NC(=O)COc2cc(C)c3c(-c4cc(C)oc4C)nn(C)c3n2)cc1
3. COc1cccc(-c2nn(C)c3nc(OCC(=O)N[C@@H](C)c4ccccc4)cc(C(F)(F)F)c23)c1
4. COc1cc2c(cc1OC)C(NC(=O)COc1cc(C)c3c(C4CC4)nn(C)c3n1)CC2 (centres unmarked)
5. Cc1cc(OCC(=O)NC(C)c2ccc3c(ccn3C)c2)nc2c1c(C1CC1)nn2C (centres unmarked)

[1750, 18, 108, 140, 127]

# batch size: 6; output Ki per entry
1. COc1ccc(C(C)NC(=O)COc2cc(C(F)(F)F)c3c(-c4ccccc4)nn(C)c3n2)cc1 (centres unmarked)
2. COc1cccc2c1CCCC2NC(=O)COc1cc(C)c2c(C3CC3)nn(C)c2n1 (centres unmarked)
3. C[C@H](NC(=O)COc1cc(C(F)(F)F)c2c(-c3cccc(F)c3)nn(C)c2n1)c1ccccc1
4. Cc1n[nH]c(C)c1C(C)NC(=O)COc1cc(C)c2c(C3CC3)nn(C)c2n1 (centres unmarked)
5. Cc1cc(OCC(=O)N[C@@H](C)c2ccccc2)nc2c1c(C1CC1)nn2C
6. Cc1ccc([C@H](C)NC(=O)COc2cc(C)c3c(-c4cc(C)oc4C)nn(C)c3n2)cc1

29
138
107
395
1010
10

* * *

- measured.target: human orexin 1 receptors (Homo sapiens (Human), UniProt O43613)
- Sequence (O43613 whole entry): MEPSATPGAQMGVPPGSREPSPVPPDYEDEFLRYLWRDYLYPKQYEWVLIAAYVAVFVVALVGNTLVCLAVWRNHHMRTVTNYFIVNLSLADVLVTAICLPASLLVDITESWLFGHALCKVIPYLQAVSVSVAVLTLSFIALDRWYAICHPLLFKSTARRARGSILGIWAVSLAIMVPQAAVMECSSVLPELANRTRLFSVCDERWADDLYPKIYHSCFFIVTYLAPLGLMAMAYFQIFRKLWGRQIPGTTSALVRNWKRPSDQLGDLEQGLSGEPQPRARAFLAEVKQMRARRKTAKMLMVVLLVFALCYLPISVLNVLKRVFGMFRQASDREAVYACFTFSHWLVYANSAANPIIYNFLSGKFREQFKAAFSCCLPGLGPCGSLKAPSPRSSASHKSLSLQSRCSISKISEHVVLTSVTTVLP
- protocol.details: Calcium Accumulation in Cells (FLIPR), antagonism of orexin A
- Assay type: cell-based
- protocol.conditions: measured at a concentration of 10 μM of compound; read-out: FLIPR hOx1R % inhibition value
For each entry below, report its inhibition at 10 µM value.

Observe how each entry below is paired with its result.
compound	inhibition at 10 µM
CC(C)CCNC(=O)COc1cc(C(F)(F)F)c2c(-c3ccccc3)nn(C)c2n1 [Example 1.68]	< 10%
Cc1cnc(CNC(=O)COc2cc(C)c3c(C4CC4)nn(C)c3n2)cn1 [Example 7.2]	< 10%

Please look at the following compound next.
get_value(item= Cc1cc(OCC(=O)NCCCn2ccnc2)nc2c1c(C1CC1)nn2C [Example 7.3] , readout=inhibition at 10 µM) returns < 10%

* * *

- measured.target: human orexin 1 receptors (Homo sapiens (Human), UniProt O43613)
- protocol.details: Calcium Accumulation in Cells (FLIPR), antagonism of orexin A
- protocol.conditions: antagonism of orexin A, Cheng-Prusoff corrected; read-out: FLIPR hOx1R Ki
observable: pKi
Numbers only, as −log10 of the molar value.

# batch size: 3; output pKi per entry
1. C[C@H](NC(=O)COc1cc(C(F)(F)F)c2c(-c3ccccc3F)nn(C)c2n1)c1ccccc1
2. C[C@H](NC(=O)COc1ccc2c(-c3ccccc3)nn(C)c2n1)c1ccccc1
3. COc1ccc2c(c1)CC[C@@H]2NC(=O)COc1cc(C(F)F)c2c(C3CC3)nn(C)c2n1

1: 6.81; 2: 6.31; 3: 7.08

# batch size: 5; output pKi per entry
1. Cn1nc(-c2ccccc2)c2c(C(F)(F)F)cc(OCC(=O)NCc3ccccc3F)nc21
2. Cc1ccc([C@H](C)NC(=O)COc2cc(C)c3c(-c4ccnn4C)nn(C)c3n2)cc1
3. CCOc1ccccc1CNC(=O)COc1cc(C(F)(F)F)c2c(-c3ccccc3)nn(C)c2n1
4. COc1ccccc1[C@H](C)NC(=O)COc1cc(C)c2c(C3CC3)nn(C)c2n1
5. Cc1ccc([C@H](C)NC(=O)COc2cc(C)c3c(-c4cncs4)nn(C)c3n2)cc1

1: 5.80; 2: 5.57; 3: 5.99; 4: 5.81; 5: 6.75

# batch size: 3; output pKi per entry
1. Cc1ccc([C@H](C)NC(=O)COc2ccc3c(-c4ccccc4C)nn(C)c3n2)cc1
2. Cc1ccc([C@H](C)NC(=O)COc2cc(C)c3c(-c4cnccn4)nn(C)c3n2)cc1
3. COc1ccc(C(C)NC(=O)COc2cc(C(F)(F)F)c3c(-c4ccccc4)nn(C)c3n2)cn1 (stereo not drawn)

1: 6.59; 2: 7.28; 3: 7.57

* * *

For each entry below, report its Kd value.
- measured.target: human orexin 1 receptors (Homo sapiens (Human), UniProt O43613)
- protocol.details: Radioligand Binding Assay II ([3H]-SB649868 competition, cell membranes)
- protocol.conditions: read-out: binding II hOx1R Kd
Numbers only, in nM.

Observe how each entry below is paired with its result.
molecule	Kd, nM
COc1ccc([C@H](C)NC(=O)COc2cc(C(F)F)c3c(-c4cc(C)oc4C)nn(C)c3n2)cc1	20
Cc1ccc([C@H](C)NC(=O)COc2cc(C)c3c(-c4cccc(C)n4)nn(C)c3n2)cc1	10
COc1cc2c(cc1OC)C(NC(=O)COc1cc(C)c3c(C4CC4)nn(C)c3n1)CC2 (centres unmarked)	55
Cc1ccc([C@H](C)NC(=O)COc2cc(C)c3c(-c4ncccn4)nn(C)c3n2)cc1	11
Cc1ccc([C@H](C)NC(=O)COc2cc(C)c3c(-c4cscn4)nn(C)c3n2)cc1	5

# batch size: 6; output Kd per entry
1. COc1ccc([C@H](C)NC(=O)COc2cc(C(F)(F)F)c3c(-c4ccccc4)nn(C)c3n2)cc1
2. Cc1ccc([C@H](C)NC(=O)COc2cc(C)c3c(-c4cnccn4)nn(C)c3n2)cc1
3. Cc1ccc([C@H](C)NC(=O)COc2cc(C(F)F)c3c(-c4ccccc4)nn(C)c3n2)cc1
4. COc1ccc([C@H](C)NC(=O)COc2cc(C(F)F)c3c(-c4ccccc4)nn(C)c3n2)cc1
5. COc1ccc2c(c1)CC[C@@H]2NC(=O)COc1cc(C(F)(F)F)c2c(C3CC3)nn(C)c2n1
6. Cc1ccc([C@H](C)NC(=O)COc2cc(C(F)F)c3c(C4CC4)nn(C)c3n2)cc1

1: 7; 2: 20; 3: 37; 4: 11; 5: 206; 6: 22

# batch size: 6; output Kd per entry
1. COc1ccc2c(c1)CC[C@@H]2NC(=O)C(C)Oc1cc(C)c2c(C3CC3)nn(C)c2n1 (single isomer, unassigned)
2. COc1ccc([C@H](C)NC(=O)COc2cc(C(F)F)c3c(C4CC4)nn(C)c3n2)cc1
3. Cc1ccc([C@H](C)NC(=O)COc2cc(C)c3c(-c4cnn(C)c4)nn(C)c3n2)cc1
4. Cc1ccc([C@H](C)NC(=O)COc2cc(C)c3c(-c4ncccc4F)nn(C)c3n2)cc1
5. CCOc1ccc2c(c1)CC[C@@H]2NC(=O)COc1cc(C)c2c(C3CC3)nn(C)c2n1
6. Cc1ccc2c(n1)CCC2NC(=O)COc1cc(C)c2c(C3CC3)nn(C)c2n1 (centres unmarked)

1: 589; 2: 36; 3: 76; 4: 27; 5: 52; 6: 157
